Experiment: Inhibition of Herpesvirus VP16-CREB (unknown origin)-mediated gene transcription in HEK293T cells by luciferase reporter gene assay
Assay type: cell-based
Settings: HEK-293T
MEASURED_ATTRIBUTE: pIC50
Entry type: numeric. Quantity: pIC50, the -log10 of concentration in molar units.

## Task Return reported pIC50; argument: O=[N+]([O-])c1ccc(Sc2cccc[n+]2[O-])c2nonc12
## Result 5.21

## Task Return reported pIC50; argument: O=[N+]([O-])c1ccc(Sc2ccccn2)c2nonc12
## Result 4.88

###

Provide the reported log10 IC50 of each item.
Assay: Inhibition of CREB-KID/CBP-KIX domain interaction (unknown origin) after 20 hrs by luciferase reporter gene assay
Set-up: species or system Homo sapiens
Short version: log10 scale, IC50, µM.

## Task Return reported log10 IC50; argument: Nc1ccc(Nc2ccc(Cl)cc2)c2nonc12
## Result 1.70

## Task Return reported log10 IC50; argument: O=C(Nc1ccc(Cl)cc1)c1ccc([N+](=O)[O-])c2nonc12
## Result -0.77

## Task Return reported log10 IC50; argument: O=[N+]([O-])c1ccc(Sc2ccccn2)c2nonc12
## Result -0.39

## Task Return reported log10 IC50; argument: O=[N+]([O-])c1ccc(CNc2ccc(Cl)cc2)c2nonc12
## Result 1.12

## Task Return reported log10 IC50; argument: O=[N+]([O-])c1ccc(Sc2cccc[n+]2[O-])c2nonc12
## Result -0.44

## Task Return reported log10 IC50; argument: O=[N+]([O-])c1ccc(Nc2ccc(Cl)cc2)c2nonc12
## Result 0.85
